// provenance: ChEMBL document CHEMBL4265970

Below, each of the compounds is paired with its reported Ki value.
Target: Alpha amylase (Homo sapiens)
Sequence (P0DUB6 whole entry): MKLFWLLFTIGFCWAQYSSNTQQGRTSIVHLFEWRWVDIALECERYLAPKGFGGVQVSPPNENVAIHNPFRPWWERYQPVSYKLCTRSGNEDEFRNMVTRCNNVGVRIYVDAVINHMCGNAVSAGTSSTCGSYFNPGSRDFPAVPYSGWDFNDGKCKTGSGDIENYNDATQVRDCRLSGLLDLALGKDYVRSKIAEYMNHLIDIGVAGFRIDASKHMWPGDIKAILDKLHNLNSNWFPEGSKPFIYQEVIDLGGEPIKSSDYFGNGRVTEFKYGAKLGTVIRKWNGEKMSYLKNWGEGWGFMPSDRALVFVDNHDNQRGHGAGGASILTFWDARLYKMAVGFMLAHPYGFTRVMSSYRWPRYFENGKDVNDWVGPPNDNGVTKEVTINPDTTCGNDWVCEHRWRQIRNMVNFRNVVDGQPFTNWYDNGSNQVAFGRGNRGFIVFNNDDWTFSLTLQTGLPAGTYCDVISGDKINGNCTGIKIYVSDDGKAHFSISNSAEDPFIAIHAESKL
Test: Mixed-type inhibition of alpha-amylase (unknown origin) using p-nitrophenylR-D-maltoside as substrate incubated for 30 mins at 1 min time interval
# unit: µM | format: bare number

In one line, give reported Ki of the entry COc1cc(/C=C2/C(=O)N(c3ccc(Cl)cc3)N=C2C)c(OC)cc1Br .
3.12

In one line, give reported Ki of the entry CC1=NN(c2ccc(Cl)cc2)C(=O)/C1=C/c1ccc(Br)cc1 .
3.84

In one line, give reported Ki of the entry COc1ccc(/C=C2/C(=O)N(c3ccc(Cl)cc3)N=C2C)c(Cl)c1OC .
3.54

In one line, give reported Ki of the entry CC1=NN(c2ccc(Cl)cc2)C(=O)/C1=C/c1cc(Cl)cc(Cl)c1O .
4.26

In one line, give reported Ki of the entry COc1cc(/C=C2/C(=O)N(c3ccc(Cl)cc3)N=C2C)cc(OC)c1Br .
3.24

In one line, give reported Ki of the entry CC1=NN(c2ccc(Cl)cc2)C(=O)/C1=C/c1cc(F)ccc1Br .
3.42

In one line, give reported Ki of the entry COc1ccc(/C=C2/C(=O)N(c3ccc(Cl)cc3)N=C2C)cc1Br .
3.84

In one line, give reported Ki of the entry COc1cc(/C=C2/C(=O)N(c3ccc(Cl)cc3)N=C2C)ccc1OC(C)=O .
2.98
